This listing pairs binders with measured EC50.
Target: Hepatocyte Growth Factor (HGF), human (human, UniProt P14210 32-728)
Sequence (P14210 32-728): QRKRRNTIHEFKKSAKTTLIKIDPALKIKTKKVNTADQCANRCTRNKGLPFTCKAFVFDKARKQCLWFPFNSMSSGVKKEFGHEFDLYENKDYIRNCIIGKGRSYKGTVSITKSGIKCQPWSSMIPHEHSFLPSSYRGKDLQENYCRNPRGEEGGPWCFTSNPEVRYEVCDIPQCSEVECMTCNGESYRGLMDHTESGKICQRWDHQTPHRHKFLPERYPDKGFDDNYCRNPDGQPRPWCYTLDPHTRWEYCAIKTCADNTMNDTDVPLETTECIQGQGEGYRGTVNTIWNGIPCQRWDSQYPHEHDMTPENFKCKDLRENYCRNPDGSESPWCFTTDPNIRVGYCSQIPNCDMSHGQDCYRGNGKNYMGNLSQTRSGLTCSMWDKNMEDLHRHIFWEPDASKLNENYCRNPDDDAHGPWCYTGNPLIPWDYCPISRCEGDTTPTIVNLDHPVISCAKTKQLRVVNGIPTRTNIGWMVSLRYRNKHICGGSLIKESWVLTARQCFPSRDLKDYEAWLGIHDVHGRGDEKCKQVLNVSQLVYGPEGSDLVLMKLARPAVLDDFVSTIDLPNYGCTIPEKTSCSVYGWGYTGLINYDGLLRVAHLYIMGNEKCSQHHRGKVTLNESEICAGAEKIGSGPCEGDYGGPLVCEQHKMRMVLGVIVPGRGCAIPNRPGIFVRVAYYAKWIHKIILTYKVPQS
Assay: ELISA
Property measured: EC50 (nM)

binder="HC 4/SLC 2 (antibody) chain 1: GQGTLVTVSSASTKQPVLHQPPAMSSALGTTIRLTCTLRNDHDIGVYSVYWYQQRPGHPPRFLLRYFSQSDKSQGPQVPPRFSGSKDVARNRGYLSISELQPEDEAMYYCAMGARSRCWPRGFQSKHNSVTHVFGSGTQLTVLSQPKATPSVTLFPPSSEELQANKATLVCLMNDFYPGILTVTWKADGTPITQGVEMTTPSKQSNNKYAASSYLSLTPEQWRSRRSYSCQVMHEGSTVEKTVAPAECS chain 2: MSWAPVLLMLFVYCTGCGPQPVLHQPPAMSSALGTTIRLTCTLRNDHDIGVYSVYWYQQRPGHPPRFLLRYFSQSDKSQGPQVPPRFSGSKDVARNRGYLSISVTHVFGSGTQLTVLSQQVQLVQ" property_measured=EC50 unit_of_measurement=nM experimental_result=0.053
binder="HC 5/SLC 4 (antibody) chain 1: GQGTLVTVSSASTKGQPVLHQPPAMSSALGTTIRLTCTLRNDHDIGVYSVYWYQQRPGHPPRFLLRYFSQSDKSQGPQVPPRFSGSKDVARNRGYLSISELQPEDEAMYYCAMGARSRCWPRGFQSKHNSVTHVFGSGTQLTVLSQPKATPSVTLFPPSSEELQANKATLVCLMNDFYPGILTVTWKADGTPITQGVEMTTPSKQSNNKYAASSYLSLTPEQWRSRRSYSCQVMHEGSTVEKTVAPAECS chain 2: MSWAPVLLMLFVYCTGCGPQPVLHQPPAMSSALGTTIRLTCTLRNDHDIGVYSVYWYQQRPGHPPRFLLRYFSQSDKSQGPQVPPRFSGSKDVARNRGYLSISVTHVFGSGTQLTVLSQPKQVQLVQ" property_measured=EC50 unit_of_measurement=nM experimental_result=0.065
binder="HC 7/SLC 2 (antibody) chain 1: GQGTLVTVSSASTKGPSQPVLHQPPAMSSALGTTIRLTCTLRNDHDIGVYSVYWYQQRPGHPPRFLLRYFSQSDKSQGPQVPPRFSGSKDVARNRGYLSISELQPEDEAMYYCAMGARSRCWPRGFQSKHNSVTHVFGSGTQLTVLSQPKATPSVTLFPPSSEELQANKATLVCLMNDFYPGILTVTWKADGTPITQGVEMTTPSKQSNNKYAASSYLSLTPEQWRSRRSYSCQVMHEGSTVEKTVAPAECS chain 2: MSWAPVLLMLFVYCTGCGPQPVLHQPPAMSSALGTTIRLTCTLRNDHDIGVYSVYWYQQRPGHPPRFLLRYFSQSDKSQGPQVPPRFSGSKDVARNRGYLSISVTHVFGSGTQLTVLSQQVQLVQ" property_measured=EC50 unit_of_measurement=nM experimental_result=0.057
binder="HC 10/SLC 7 (antibody) chain 1: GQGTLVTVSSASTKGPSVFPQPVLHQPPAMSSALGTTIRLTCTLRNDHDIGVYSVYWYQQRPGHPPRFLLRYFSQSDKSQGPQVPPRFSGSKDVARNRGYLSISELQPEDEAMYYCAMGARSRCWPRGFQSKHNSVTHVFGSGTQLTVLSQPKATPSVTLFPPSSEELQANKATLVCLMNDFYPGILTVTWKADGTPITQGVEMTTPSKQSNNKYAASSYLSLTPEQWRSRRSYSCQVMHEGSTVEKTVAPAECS chain 2: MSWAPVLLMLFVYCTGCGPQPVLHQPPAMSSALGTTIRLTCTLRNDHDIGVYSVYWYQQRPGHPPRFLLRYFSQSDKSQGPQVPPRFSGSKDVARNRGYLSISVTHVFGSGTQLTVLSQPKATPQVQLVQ" property_measured=EC50 unit_of_measurement=nM experimental_result=0.059
